Target: Bromodomain-containing protein 4 (Homo sapiens)
Assay: Displacement of APC-labeled biotinylated-avidin from […]-chelated recombinant human N-terminal GST-tagged BRD4 bromodomain 1 expressed in Escherichia coli preincubated for 15 mins followed by APC-labeled biotinylated-avidin addition and measured after 1 hr under dark condition by TR-FRET assay
measured-property: IC50 (nM)
Field format: number, assumed nM, no unit text.

1. COc1ccc2c(c1)C(c1ccc(Cl)cc1)=NC(CC(=O)Nc1ccc(F)cc1)c1sc(=O)n(C)c1-2 (stereo not given) :: 680

Q. Give IC50 only, for CCOC(=O)CC1OC(c2ccc(Cl)cc2)c2cc(OC)ccc2-c2c1sc(=O)n2C (stereo not given) , using Bromodomain-containing protein 4 (Homo sapiens) data.
A. 480

Q. Give IC50 only, for CCOC(=O)CC1N=C(c2ccc(Cl)cc2)c2cc(OC)ccc2-c2c1sc(=O)n2C (stereo not given) , using Bromodomain-containing protein 4 (Homo sapiens) data.
A. 420

Q. Give IC50 only, for COc1ccc2c(c1)C(c1ccc(Cl)cc1)=NC(CC(=O)Nc1ccccc1)c1sc(=O)n(C)c1-2 (stereo not given) , using Bromodomain-containing protein 4 (Homo sapiens) data.
A. 200

Q. Give IC50 only, for COc1ccc2c(c1)C(c1ccc(Cl)cc1)=NC(CC(=O)N1CCCC1)c1sc(=O)n(C)c1-2 (stereo not given) , using Bromodomain-containing protein 4 (Homo sapiens) data.
A. 540

Q. Give IC50 only, for COc1ccc2c(c1)C(c1ccc(Cl)cc1)=NC(CC(=O)Nc1ccc(O)cc1)c1sc(=O)n(C)c1-2 (stereo not given) , using Bromodomain-containing protein 4 (Homo sapiens) data.
A. 510

Q. Give IC50 only, for COc1ccc2c(c1)C(c1ccc(Cl)cc1)=NC(CC(=O)NC1CC1)c1sc(=O)n(C)c1-2 (stereo not given) , using Bromodomain-containing protein 4 (Homo sapiens) data.
A. 140

Q. Give IC50 only, for COc1ccc2c(c1)C(c1ccc(Cl)cc1)=NC(CC(=O)N1CCCCC1)c1sc(=O)n(C)c1-2 (stereo not given) , using Bromodomain-containing protein 4 (Homo sapiens) data.
A. 430

Q. Give IC50 only, for COc1ccc2c(c1)C(c1ccc(Cl)cc1)=NC(CC(=O)NC1CCCC1)c1sc(=O)n(C)c1-2 (stereo not given) , using Bromodomain-containing protein 4 (Homo sapiens) data.
A. 110

Q. Give IC50 only, for C#CCNC(=O)CC1N=C(c2ccc(Cl)cc2)c2cc(OC)ccc2-c2c1sc(=O)n2C (stereo not given) , using Bromodomain-containing protein 4 (Homo sapiens) data.
A. 210
